biological target: EGFR L858R (Homo sapiens, UniProt P00533, L858R); assay: EGFR biochemical assay (headed HTRF-based; method describes Z'-LYTE), L858R; conditions: Table 4
Sequence (P00533 25-1210 L858R): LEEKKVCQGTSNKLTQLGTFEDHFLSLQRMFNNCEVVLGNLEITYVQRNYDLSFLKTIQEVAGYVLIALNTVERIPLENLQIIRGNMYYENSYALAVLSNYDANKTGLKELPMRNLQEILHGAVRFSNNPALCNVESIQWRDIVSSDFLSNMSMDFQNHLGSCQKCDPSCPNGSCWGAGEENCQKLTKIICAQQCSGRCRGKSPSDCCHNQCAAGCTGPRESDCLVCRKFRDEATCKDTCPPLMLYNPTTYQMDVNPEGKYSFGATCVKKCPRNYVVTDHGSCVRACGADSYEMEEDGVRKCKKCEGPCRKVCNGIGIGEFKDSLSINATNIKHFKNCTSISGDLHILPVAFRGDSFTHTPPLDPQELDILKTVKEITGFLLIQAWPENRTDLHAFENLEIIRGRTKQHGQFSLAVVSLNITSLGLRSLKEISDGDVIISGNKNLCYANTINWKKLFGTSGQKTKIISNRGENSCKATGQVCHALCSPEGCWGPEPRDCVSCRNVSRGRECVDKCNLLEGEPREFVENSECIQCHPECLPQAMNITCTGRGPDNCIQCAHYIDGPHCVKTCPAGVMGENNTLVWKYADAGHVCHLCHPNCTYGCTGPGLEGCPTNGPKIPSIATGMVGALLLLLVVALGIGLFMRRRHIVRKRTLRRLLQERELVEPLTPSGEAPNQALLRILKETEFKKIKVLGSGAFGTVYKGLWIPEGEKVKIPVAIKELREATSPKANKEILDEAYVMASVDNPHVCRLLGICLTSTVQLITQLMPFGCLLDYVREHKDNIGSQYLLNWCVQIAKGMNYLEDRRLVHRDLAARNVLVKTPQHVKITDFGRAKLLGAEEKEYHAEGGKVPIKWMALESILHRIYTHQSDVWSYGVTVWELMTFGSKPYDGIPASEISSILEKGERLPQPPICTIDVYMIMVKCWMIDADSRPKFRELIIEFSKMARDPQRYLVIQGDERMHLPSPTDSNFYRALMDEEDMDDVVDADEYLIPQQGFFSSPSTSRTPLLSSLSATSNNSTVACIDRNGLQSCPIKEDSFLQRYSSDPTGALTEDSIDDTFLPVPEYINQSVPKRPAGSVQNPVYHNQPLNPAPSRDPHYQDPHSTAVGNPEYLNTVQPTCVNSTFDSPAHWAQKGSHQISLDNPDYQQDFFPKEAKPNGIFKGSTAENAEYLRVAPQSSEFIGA
IC50 by entry:
metric_name: IC50

{"molecule": "C=CC(=O)N1CCC(N2Cc3cnc(Nc4ccc(N5CCN(C)CC5)cc4)nc3N(C)C2=O)c2cccc(C(F)(F)F)c21 (stereo not drawn)", "metric_name": "IC50", "experimental_result": "> 1000 nM"}
{"molecule": "C=C(CN1CC(N2Cc3cnc(Nc4ccc(N5CCN(C)CC5)cc4)nc3N(C)C2=O)C1)C(=O)O", "metric_name": "IC50", "experimental_result": "> 1000 nM"}
{"molecule": "C=CC(=O)N1c2ccccc2[C@@H](N2Cc3cnc(Nc4ccc(N5CCN(C)CC5)cc4)nc3N(C)C2=O)C[C@@H]1C", "metric_name": "IC50", "experimental_result": "0.89 nM"}
{"molecule": "C=CC(=O)N1CCC(N2Cc3cnc(Nc4ccc(N5CCN(C)CC5)cc4)nc3N(C)C2=O)c2cnn(C)c21 (stereo not drawn)", "metric_name": "IC50", "experimental_result": "> 1000 nM"}
{"molecule": "C=C(F)C(=O)N1CC[C@@H](N2Cc3cnc(Nc4cnn(CCO)c4)nc3N(C)C2=O)c2cccc(OC)c21 (single isomer, unassigned)", "metric_name": "IC50", "experimental_result": "> 100 nM"}
{"molecule": "C=CC(=O)N1CC[C@H](N2Cc3cnc(Nc4ccc(N5CCN(C)CC5)cc4)nc3N(C3CCOC3)C2=O)c2cccc(C)c21 (stereo partly drawn)", "metric_name": "IC50", "experimental_result": "0.86 nM"}
